// reported IC50 (read off the curve): % GFP+ human LAIR-1 reporter cells on coated collagen 4 for each item listed
target: human LAIR-1-CD3ζ chimeric receptor on NFAT-GFP reporter cells (human, UniProt P20963 31-164, limits assumed); assay: cell-based or functional assay
Sequence (P20963 other isoform, or with tags, fused parts or gaps mutant limits assumed): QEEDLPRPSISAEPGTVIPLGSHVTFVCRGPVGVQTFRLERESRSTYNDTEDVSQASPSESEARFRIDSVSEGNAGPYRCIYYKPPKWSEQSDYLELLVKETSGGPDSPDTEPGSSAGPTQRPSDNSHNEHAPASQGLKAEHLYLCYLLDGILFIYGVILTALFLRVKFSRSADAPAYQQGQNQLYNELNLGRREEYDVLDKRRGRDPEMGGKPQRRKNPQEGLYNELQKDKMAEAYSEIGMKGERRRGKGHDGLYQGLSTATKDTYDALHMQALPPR
assay.endpoint: IC50 (read off the curve): % GFP+ human LAIR-1 reporter cells on coated collagen 4

binder	result
anti-LAIR-1 antibody ch62G10 (antibody, V domains shown, The prefix 'ch' is not defined) VH: EVQLVETGGGLVQPKGSLKLSCATSGFTFNINAMNWVRQAPGKGLEWVARIRTKNNNFATYYADSVKDRFTISRDDSQSMLYLQMNNLKTEDTAMYYCVRGPYFDYWGQGTTLTVSS VL: DIQMTQSPASQSASLGESVTITCLASQTIGTWLAWYQQKPGKSPQLLIYAATSLADGVPSRFSGSGSGTKFSFKISNLQAEDFVTYYCQQLYSTPYTFGGGTKLEIK	~0.1 nM
anti-LAIR-1 antibody ch108D10 (antibody, V domains shown) VH: EVQLVETGGGLVQPKGSLKLSCAASGFTFNINAMNWVRQAPGKGLEWVARIRTKNNNYATYYADSVKDRFTISRDDSESMLYLQMNNLKTEDTAMYYCVRDRYGGAMAYWGQGTSVTVSS VL: DIQMTQSSSSFSVSLGDRVTITCKASEDIYNRLAWYQQKPGNVPRLLISSATSLETGVPSRFSGSGSGKDYTLSLTSLQSEDVATYYCQQYWTIPYTFGGGTKLEIK	~0.04 nM
